# Test Details: Determination of PK parameters in dog after intravenous bolus
# Assay type: in vivo, Male beagle dogs
# Settings: male beagle dog, plasma, 50% DMSO in PEG400, read-out: Dog t1/2 (terminal half-life) (converted)
Readout Type: half-life

Past entries and their recorded results:
# Given Smiles, half-life
measured = [
    ("N#Cc1cc(Cl)cc(Oc2c(C(F)(F)F)ncn(Cc3cc(C(F)F)n[nH]c3=O)c2=O)c1", "81 h"),
    ("CC(C)(C)c1ncc(Cn2cnc(C(F)(F)F)c(Oc3cc(Cl)cc(C#N)c3)c2=O)c(=O)[nH]1", "24 h"),
    ("CC(F)(F)c1cc(Cn2cnc(C(F)(F)F)c(Oc3cc(Cl)cc(C#N)c3)c2=O)c(=O)[nH]n1", "126 h"),
]

Attention now shifts to the item below.
Asked: What does the data say about its half-life? Entry: N#Cc1cc(Cl)cc(Oc2c(C(F)(F)F)ncn(Cc3cc(-c4ccc(C#N)c(F)c4)c(=O)[nH]n3)c2=O)c1
Given back: 25 h

---

# Test Target: HIV-1 RT wild-type enzyme (Human immunodeficiency virus type 1 group M subtype B (isolate HXB2) (HIV-1))
# Test Details: HIV-1 reverse transcriptase inhibitory activity (RT polymerase assay)
# Type: biochemical
# Settings: HIV-1 RT wild-type enzyme 83 pM; RNA-dependent DNA polymerase activity; read-out: IC50
Item-by-item account of IC50
Numeric only. Scale: nM

Past entries and their recorded results:
# Molecule, IC50 (nM)
rows = [
    ("Cc1ccc(-c2cc(Cn3cnc(C(F)(F)F)c(Oc4cc(Cl)cc(C#N)c4)c3=O)n[nH]c2=O)cc1 [Example 31]", 5),
    ("CC(F)(F)c1cc(Cn2cnc(C(F)F)c(Oc3cc(Cl)cc(C#N)c3)c2=O)c(=O)[nH]n1 [Example 179]", 8),
    ("CCS(=O)(=O)c1cc(Cn2cnc(C(F)(F)F)c(Oc3cc(Cl)cc(C#N)c3)c2=O)n[nH]c1=O [Example 97]", 247),
]

Asked: What does the data say about its IC50? Entry: Cn1cc(Cn2cnc(C(F)(F)F)c(Oc3cc(Cl)cc(C#N)c3)c2=O)ncc1=O [Example 3]
Given back: 33

---

# Test Target: HIV-1 RT wild-type enzyme (Human immunodeficiency virus type 1 group M subtype B (isolate HXB2) (HIV-1))
# Test Details: HIV-1 reverse transcriptase inhibitory activity (RT polymerase assay)
# Type: biochemical
# Settings: HIV-1 RT wild-type enzyme 83 pM; RNA-dependent DNA polymerase activity; read-out: IC50
# Description: Determination of HIV-1 Reverse Transcriptase Inhibitory Activity The heterodimeric nucleic acid substrate used in the HIV-1 RT polymerase reactions was generated by annealing the DNA primer, biotinylated pD500 (Sigma Aldrich, USA, 5′-biotin-ttg aaa tga ctg cgg tac ggc-3′), SEQ ID NO. […] Titration curves and IC50 values were calculated using a four parameter logisitc fit according to standard procedures. […]
pIC50: −log10 of the molar value.
pIC50 below 8 gives 0.0; pIC50 at or above it gives 1.0.

# Molecule, Group
data = [
    ("COc1ccc(-c2cc(Cn3cnc(C(F)(F)F)c(Oc4cc(Cl)cc(C#N)c4)c3=O)n[nH]c2=O)cc1F [Example 52]", 1.0),
    ("N#Cc1cc(Cl)cc(Oc2c(C(F)(F)F)ncn(Cc3cc(C(N)=O)c(=O)[nH]n3)c2=O)c1 [Example 101]", 0.0),
    ("CC(=O)c1cc(Cn2cnc(C(F)(F)F)c(Oc3cc(Cl)cc(C#N)c3)c2=O)n[nH]c1=O [Example 105]", 0.0),
]

Asked: Decide: pIC50 of CC(C)(C)c1ccc(-c2cc(Cn3cnc(C(F)(F)F)c(Oc4cc(Cl)cc(C#N)c4)c3=O)n[nH]c2=O)cc1 [Example 53] >= 8?
Given back: 0.0
